# assayed-system: T1, rhesus monkey transferrin receptor (rhTfR) fused to EGFP, on CHO cells (rhesus monkey)
# T1 construct: whole, on cells; also called rhesus monkey TfR
# experiment-notes: apparent Kd, flow cytometry, CHO cells
metric: Kd (nM)
One number for each entry, in nM.

Please review the entries below; each comes with its answer.
Form field Kd, entry VHH A13 (C5^V13) (VHH) VHH: EVQLVESGGGVVQPGGSLKLSCVASGTDFSINFIRWYRQAPGKQREFVAGFSATGNTNYADSMKGRFTISRDNTKNAVYLQIDSLKPEDTAVYYCYMLDKWGQGTQVTVSS : 28

Form field Kd, entry C10a (VHH) VHH: EVQLVESGGGLVQAGDSLRLSCAASGFASHLYAIGWFRQAPGKEREKVSCISSNDGSTYYADSVKGRFTISRDTVKDMVYLQMNSLKPEDTAVYYCATDLTVHCFMAEYDWWGQGTQVTVSS : 3.2

Form field Kd, entry B8^V40 (VHH) VHH: EVQLVESGGGVVQPGGSLRLSCAASGEIKSINFMRWYRQAPGKQREWVSGFTRDGSTNYPDSAKGRFTISRDNAKNTVYLQIDSLKPEDTAVYYCYMLDTWGQGTQVTVSS : 69

Form field Kd, entry C5^V16h20 (VHH) VHH: EVQLVESGGGVVQPGGSLRLSCAASGTDFSINFIRWYRQAPGKGLEFVAGFTATGNTNYADSVKGRFTISRDNAKNAVYLQMNSLRPEDTAVYYCYILDKWGQGTQVTVSS : 793

Form field Kd, entry C5^V31 (VHH) VHH: EVQLVESGGGVVQPGGSLKLSCVASGTDRSINFIRWYRQAPGKQREFVAGFTATGNTNYADSMKGRFTISRDNTKNAVYLQIDSLKPEDTAVYYCYMLDKWGQGTQVTVSS : 256

Form field Kd, entry B8^V1 (VHH) VHH: EVQLVESGGGVVQPGGSLRLSCAADGEIFSINFMRWYRQAPGKQREWVAGFTRDGSTNYPDSAKGRFTISRDNAKNTVYLQIDSLKPEDTAVYYCYMLDTWGQGTQVTVSS : 138

// below: Kd requested for another binder
Form field Kd, entry B8^V34 (VHH) VHH: EVQLVESGGGVVQPGGSLRLSCAASGEIRSINFMRWYRQAPGKQREWVAGFTRDGSTNYPDIAKGRFTISRDNAKNTVYLQIDSLKPEDTAVYYCYMLDTWGQGTQVTVSS : 68
